- assayed.target: CD73 (Homo sapiens, UniProt P21589)
- Sequence (P21589 27-549): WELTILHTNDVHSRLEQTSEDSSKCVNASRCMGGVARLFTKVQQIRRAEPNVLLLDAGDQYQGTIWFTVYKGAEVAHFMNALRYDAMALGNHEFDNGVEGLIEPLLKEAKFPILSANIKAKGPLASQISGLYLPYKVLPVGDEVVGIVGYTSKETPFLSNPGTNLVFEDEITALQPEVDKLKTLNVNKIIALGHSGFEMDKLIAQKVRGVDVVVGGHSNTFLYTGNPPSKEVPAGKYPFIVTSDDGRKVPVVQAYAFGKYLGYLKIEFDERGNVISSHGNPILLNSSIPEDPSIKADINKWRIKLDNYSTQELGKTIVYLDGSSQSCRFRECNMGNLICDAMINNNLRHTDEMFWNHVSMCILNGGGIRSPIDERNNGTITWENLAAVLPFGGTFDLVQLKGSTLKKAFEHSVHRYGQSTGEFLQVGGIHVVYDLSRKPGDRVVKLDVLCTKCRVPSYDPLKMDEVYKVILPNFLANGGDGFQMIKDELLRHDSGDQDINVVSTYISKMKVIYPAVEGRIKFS
- assay.protocol: Calu6 Human Cell Assay
- test.conditions: Calu6 cells, 50 μM AMP premix, 60 minutes at room temperature
measured.quantity: IC50 (nM)
Write the value in nM as a bare number.

# return IC50 for CC[C@H]1C[C@@H]1c1cc(-c2c[nH]c(=O)[nH]c2=O)nnc1C , test system: CD73 (Homo sapiens, UniProt P21589) 28

----------
- assayed.target: CD73 (Homo sapiens, UniProt P21589)
- assay.protocol: LC/MS Based Assay for Measuring CD73 Activity in Human Serum
- test.conditions: concentrations corrected with the fraction unbound, read-out: EC50, inhibition of CD73 activity in human serum
measured.quantity: EC50 (nM)
Write the value in nM as a bare number.

Examples with answers:
CC(C)[C@H]1C[C@@H]1c1cc(-c2c[nH]c(=O)[nH]c2=O)nnc1Cl (relative stereo) [Example 8] ... 179
O=c1[nH]cc(-c2cc([C@H]3C[C@@H]3C(F)F)c(Cl)nn2)c(=O)[nH]1 [Example 10] ... 55
O=c1[nH]cc(-c2cc([C@H]3CC3(F)F)c(Cl)nn2)c(=O)[nH]1 (single isomer, unassigned) [Example 9] ... 297
CC[C@H]1C[C@@H]1c1cc(-c2c[nH]c(=O)[nH]c2=O)nnc1C [Example 1] ... 100

Next, consider the following compound.
Quote EC50 reported for CC[C@H]1C[C@@H]1c1cc(-c2c[nH]c(=O)[nH]c2=O)nnc1C#N [Example 22] please. 212
